FYI, the data here is from the supplement of paper PMC10567573.

B1: NR2F2 (parent)
chain: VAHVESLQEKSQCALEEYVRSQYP

variants of: B1; experiment: protein stability index of a GFP-peptide fusion (GPS, HEK-293T) (PSI 1-6); higher = more stable; conditions: c terminus: a fixed tail appended;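 further: lentivirally expressed fusions sorted by FACS into six bins by GFP to DsRed ratio, PSI derived from sequencing read proportions per bin multiplied by bin number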
readout_kind: protein stability index

query: Find the recorded protein stability index belonging to `VAHVEHLQEKSQCALEEYVRSQYP` and report it.
result: 3.26

query: Next record, please: `VAHVESLQEKSQCALEEYVRQQYP`
result: 3.53

query: Next record, please: `VAHVESLQEKSQSALEEYVRSQYP`
result: 4.24

query: Next record, please: `VAHVESIQEKSQCALEEYVRSQYP`
result: 3.82

query: Next record, please: `VAHVESLQEKSQCALFEYVRSQYP`
result: 2.35

query: Next record, please: `VAHVEMLQEKSQCALEEYVRSQYP`
result: 3.07

query: Next record, please: `VAHVESLQEKSQCVLEEYVRSQYP`
result: 3.83

query: Next record, please: `VAHVESLQEKSACALEEYVRSQYP`
result: 3.33

query: Next record, please: `VAHVESLQEKSQDALEEYVRSQYP`
result: 4.36
